system: ACHN renal; assay: NCI tumour cell line growth inhibition, 48 h
Hi there, I'd appreciate the recorded TGI for every entry that follows.
Answers are plain numbers, in µM.

Sample answers from the record:
| Mol | Value Measured |
| --- | --- |
| CC(=N/NC(=S)N1CCCCC1)/C(C)=N\NC(=S)N1CCCCC1 | 2.92 |
| CN(C)CCNC1=CC(=O)c2c(O)ccc(O)c2C1=O | 25.8 |
| Cc1cccc2c1O/C(=C\c1ncc([N+](=O)[O-])n1C)C2=O | 0.341 |
| O=C1/C(=C/c2ccccc2Br)COc2ccc(O)c(O)c21 | 3.09 |

Continue with the next compound.
### Prompt Value lookup for TGI; key = `O=C(NCCCCNCCCNC(=O)c1cc(-c2ccccc2)nc2ccccc12)c1cc(-c2ccccc2)nc2ccccc12`
### Response 3.3
